The measured values listed here are drawn from the RNAGym collection of RNA variant scans (doi:10.7554/elife.80360).

Each entry below lists one item and its recorded self-cleavage value.
B1: HDV Ribozyme (parent)
chain: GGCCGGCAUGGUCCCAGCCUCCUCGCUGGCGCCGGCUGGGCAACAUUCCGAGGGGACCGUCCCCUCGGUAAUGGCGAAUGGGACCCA

# Variants of: B1
# METHOD DESCRIPTION: self-cleavage, relative activity (ratio to wild type); higher = more cleavage; co-transcriptional

See these solved cases before continuing.
INSERT INTO assay_data (entry_sequence, assay_value) VALUES
  ('GGCCGGCAUGGUCCCAGCCUCCUCGCUGGCGCCGGCUGGGCAAUAUUCUGAGGGGACCGUCCCCUCGGUAAUGGCGAAUGGGACCCA [C44U C49U]', 0.96),
  ('GGCCGGCAUGGUCCCAGCCUCCUCGCUGCCACCGGCUGGGCAACAUUCCGAGGGGACCGUCCCCUCGGUAAUGGCGAAUGGGACCCA [G29C G31A]', 0.0875),
  ('GGCCGGCAUGGUCCCAGCCUCCUCGCUGGCGCCGGCUGGGCAACAUUCCGAAGGGACCGUCCCCUCAGUAAUGGCGAAUGGGACCCA [G52A G67A]', 0.923);

Query: Any idea what self-cleavage was measured for GGCCGGCAUGGUCCCAGCCUCCUCGCUGGCGCCGGCUGGGCAACAUUCCGAGGAGACCGUCCCCUCGGUAAUGGCGAAUGCGACCCA [G54A G81C] ?
Reply: 0.26
